Settings: Liquid; Ebulliometric method (Recirculating still)
Readout kind: Normal boiling temperature (°C)

Consider the reported Normal boiling temperature for these molecules:
COCC(C)O (stereo not given): 120.2
CO: 64.6
COC(C)=O [methyl ethanoate]: 57.2

(1) CC(C)O
(2) COCC(C)OC(C)=O (stereo not given) [1-methoxy-2-propyl acetate]
Exercise: // compare: 1 vs 2 , metric Normal boiling temperature, want the smaller Answer by stating the label of the chosen item.
Key: 1

----------
Settings: 298.15 K; 101.33 kPa; Liquid; Vibrating tube method
Readout kind: mass density (kg/m3)

COCC(C)OC(C)=O (stereo not given) [1-methoxy-2-propyl acetate]: 963
COCC(C)O (stereo not given): 916.5
CO: 786.9
CC(C)O: 781.4
COC(C)=O [methyl ethanoate]: 927.5
